Target: breast cancer resistance protein (BCRP) (Homo sapiens, UniProt Q9UNQ0)
Sequence (Q9UNQ0 1-655): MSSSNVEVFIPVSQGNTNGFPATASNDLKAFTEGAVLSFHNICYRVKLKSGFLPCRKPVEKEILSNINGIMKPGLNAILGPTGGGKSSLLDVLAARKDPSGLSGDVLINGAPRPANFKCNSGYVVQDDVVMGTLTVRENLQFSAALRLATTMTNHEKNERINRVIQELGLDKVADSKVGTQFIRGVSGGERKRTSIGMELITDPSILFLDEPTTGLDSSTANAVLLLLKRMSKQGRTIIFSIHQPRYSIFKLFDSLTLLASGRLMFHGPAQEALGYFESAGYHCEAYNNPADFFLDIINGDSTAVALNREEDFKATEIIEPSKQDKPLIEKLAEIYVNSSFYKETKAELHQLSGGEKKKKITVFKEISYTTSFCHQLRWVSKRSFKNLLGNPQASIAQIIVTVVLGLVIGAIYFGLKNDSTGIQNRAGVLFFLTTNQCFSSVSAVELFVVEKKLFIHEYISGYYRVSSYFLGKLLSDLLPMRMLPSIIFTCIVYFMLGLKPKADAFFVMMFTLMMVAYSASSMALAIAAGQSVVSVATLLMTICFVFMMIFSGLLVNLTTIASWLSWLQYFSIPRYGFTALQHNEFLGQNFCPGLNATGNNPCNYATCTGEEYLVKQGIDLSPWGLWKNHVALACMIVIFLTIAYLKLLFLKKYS
Experiment: biochemical
measurement-type: EC50 (µM)
Reply numerically in µM, unit not repeated.

Task: For breast cancer resistance protein (BCRP) (Homo sapiens, UniProt Q9UNQ0), provide EC50 of CNC(=O)c1cc(Oc2ccc(NC(=O)Nc3ccc(Cl)c(C(F)(F)F)c3)c(F)c2)ccn1 please.
Output: 3.59
